biological target: IRAK4 auto-phosphorylation (Homo sapiens (Human)); test: IRAK4 phosphorylation cell assay in IL-1β-stimulated Karpas-299 cells; settings: IL-1β 22.7 ng/mL, pIRAK4 (Thr345/Ser346), geometric mean of at least 2 experiments
Sequence (Q9NWZ3 whole entry): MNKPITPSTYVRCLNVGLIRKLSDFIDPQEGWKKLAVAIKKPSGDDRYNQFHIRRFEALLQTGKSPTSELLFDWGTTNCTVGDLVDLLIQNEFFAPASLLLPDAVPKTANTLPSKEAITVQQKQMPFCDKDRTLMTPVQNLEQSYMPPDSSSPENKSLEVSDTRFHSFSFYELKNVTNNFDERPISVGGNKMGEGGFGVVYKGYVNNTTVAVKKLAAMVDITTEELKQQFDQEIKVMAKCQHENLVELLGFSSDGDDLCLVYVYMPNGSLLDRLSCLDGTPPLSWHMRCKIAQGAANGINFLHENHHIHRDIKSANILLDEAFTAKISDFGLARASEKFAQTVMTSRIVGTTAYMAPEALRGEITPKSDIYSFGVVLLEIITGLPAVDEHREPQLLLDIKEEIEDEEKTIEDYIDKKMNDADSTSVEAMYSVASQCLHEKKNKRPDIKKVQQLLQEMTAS
pIC50: −log10 of the molar value.

>  <Molecule>
COc1cc2nn([C@H]3CCC[C@@H](O)C3)cc2cc1C(=O)Nc1cnn2cccnc12 (single isomer, unassigned) [Example 14]

>  <Test System>
IRAK4 auto-phosphorylation (Homo sapiens (Human))

>  <pIC50>
6.77

$$$$
>  <Molecule>
COc1cc2nn([C@H]3CC[C@@H](O)C[C@@H]3C)cc2cc1C(=O)Nc1cnn2cccnc12 (relative stereo) [Example 40]

>  <Test System>
IRAK4 auto-phosphorylation (Homo sapiens (Human))

>  <pIC50>
6.80

$$$$
>  <Molecule>
COc1cc2nn([C@H]3CC[C@]4(CC3)CC(=O)N(C)C4)cc2cc1C(=O)Nc1cnn2cccnc12

>  <Test System>
IRAK4 auto-phosphorylation (Homo sapiens (Human))

>  <pIC50>
7.44

$$$$
>  <Molecule>
C[C@H]1C[C@@H](O)CC[C@@H]1n1cc2cc(C(=O)Nc3cnn4cccnc34)c(OC3CC3)cc2n1 (single isomer, unassigned) [Example 44]

>  <Test System>
IRAK4 auto-phosphorylation (Homo sapiens (Human))

>  <pIC50>
7.38

$$$$
>  <Molecule>
COc1cc2nn([C@H]3CC[C@H](N(C)C(C)=O)CC3)cc2cc1C(=O)Nc1cnn2cnccc12

>  <Test System>
IRAK4 auto-phosphorylation (Homo sapiens (Human))

>  <pIC50>
7.72

$$$$
>  <Molecule>
COc1cc2nn([C@@H]3CCC4(C[C@@H]3C)CN(C(C)=O)C4)cc2cc1C(=O)Nc1cnc2cccnn12 (single isomer, unassigned) [Example 64]

>  <Test System>
IRAK4 auto-phosphorylation (Homo sapiens (Human))

>  <pIC50>
7.42

$$$$
>  <Molecule>
COc1cc2nn([C@H]3CC[C@H](N(C)C(=O)C[C@@H](C)O)CC3)cc2cc1C(=O)Nc1cnn2cccnc12

>  <Test System>
IRAK4 auto-phosphorylation (Homo sapiens (Human))

>  <pIC50>
7.57

$$$$
